System: HEK-293T
assay method text: Multiplex assay against HEK293T
Type: toxicity, cell-based
assay conditions: human, 24 h, 10 µM, compound concentration 10 uM, replicate 1
Exercise: state measured Population Pyknosed Nuclei (%) for each of the compounds provided.
The reply should be a number in %, with the unit left off.

INPUT: Short answer please: Population Pyknosed Nuclei (%), HEK-293T, entry `O=C(NCC(=O)N1CC[C@H](N[C@H]2CC[C@@](O)(c3ccc(-c4ncccn4)cn3)CC2)C1)c1cccc(C(F)(F)F)c1`
OUTPUT: 16

INPUT: Request: Population Pyknosed Nuclei (%), test system HEK-293T, entry `Cc1nc2ccc(Oc3ccc(F)cc3)cc2c(=O)n1C[C@H]1CCCN(C(C)C)C1.Cl`
OUTPUT: 15

INPUT: Entry `O=C(NCCO)c1cccc(-c2cc(Nc3ccc(OC(F)(F)F)cc3)ncn2)c1` , system HEK-293T: what Population Pyknosed Nuclei (%) was measured?
OUTPUT: 14

INPUT: Which measured Population Pyknosed Nuclei (%) belongs to `N#Cc1c(N)nc(SCc2csc(-c3ccc(Cl)cc3)n2)c(C#N)c1-c1ccc(OCCO)cc1` , tested on HEK-293T?
OUTPUT: 22

INPUT: Tell me reported Population Pyknosed Nuclei (%) for CSc1ccccc1N1CCN(CCCCCC(=O)NC2CCCc3ccccc32)CC1.Cl (stereo not drawn) , tested with HEK-293T.
OUTPUT: 23

INPUT: Param readout = Population Pyknosed Nuclei (%); param system = HEK-293T; param query = `CC(=O)NCCc1c(Cc2ccccc2)[nH]c2ccccc12` ; response: value
OUTPUT: 8

INPUT: Query Population Pyknosed Nuclei (%) on HEK-293T for `CC[C@H]1OC(=O)[C@H](C)[C@@H](O[C@H]2C[C@@](C)(OC)[C@@H](O)[C@H](C)O2)[C@H](C)[C@@H](O[C@@H]2O[C@H](C)C[C@H](N(C)C)[C@H]2O)[C@@]2(C)CC(C)=C(O2)[C@H](C)[C@@H](O)[C@]1(C)O`
OUTPUT: 15

INPUT: Observed Population Pyknosed Nuclei (%) on HEK-293T for `c1cc(OCCCN2CCCCC2)ccc1CN1CCCCC1` , please.
OUTPUT: 13

----------
Please provide measured Population Mitochondria Different-Phenotype (%) for the entries that follow.
System: HEK-293T
assay method text: Multiplex assay against HEK293T
Assay type: toxicity, cell-based
assay conditions: human, 24 h, 1 µM, compound concentration 1 uM, replicate 2
Quick note: give the figure in %, leave out the unit.

INPUT: What value of Population Mitochondria Different-Phenotype (%) has been reported for the following compound? `O=C(O)Cc1ccccc1Nc1c(Cl)cccc1Cl`
OUTPUT: 37

INPUT: Which Population Mitochondria Different-Phenotype (%) value is on record for `COc1c(C)cc(NC(=O)c2nn(Cc3ccc(F)cc3)c3c2CN(C(=O)c2ccc[nH]2)C[C@]3(C)C(N)=O)cc1C` ?
OUTPUT: 43

INPUT: Quick check: Population Mitochondria Different-Phenotype (%) of `N[C@@]1(C(=O)O)CO[C@H]2[C@H](C(=O)O)[C@H]21` ?
OUTPUT: 31

INPUT: Suppose we examine the compound `CC1(COc2ccc3c(c2)ncn3-c2ccc3cccc(N4CCC(N)CC4)c3n2)COC1` ; what Population Mitochondria Different-Phenotype (%) value has been reported?
OUTPUT: 33

INPUT: # input compound: `COc1ccccc1N1CCN(CCCCNC(=O)c2ccc3ccccc3c2)CC1.Cl` ; wanted: its Population Mitochondria Different-Phenotype (%)
OUTPUT: 62
